Biological target: recombinant GSK3β kinase (Homo sapiens (Human))
Sequence (P49841 whole entry): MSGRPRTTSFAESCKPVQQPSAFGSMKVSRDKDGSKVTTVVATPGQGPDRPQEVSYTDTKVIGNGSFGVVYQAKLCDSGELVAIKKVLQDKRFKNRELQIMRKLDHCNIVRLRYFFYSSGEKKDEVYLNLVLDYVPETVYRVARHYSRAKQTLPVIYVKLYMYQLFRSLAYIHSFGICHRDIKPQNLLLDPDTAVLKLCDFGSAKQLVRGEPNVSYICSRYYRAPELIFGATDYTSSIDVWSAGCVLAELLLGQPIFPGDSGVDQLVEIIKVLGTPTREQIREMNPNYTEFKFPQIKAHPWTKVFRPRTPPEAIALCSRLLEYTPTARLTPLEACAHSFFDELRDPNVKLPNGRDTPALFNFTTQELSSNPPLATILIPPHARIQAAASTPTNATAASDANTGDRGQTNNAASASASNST
Assay: GSK3β kinase assay (Ser/Thr 09 peptide Z-lyte FRET);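 also: kinase activity read as coumarin to fluorescein emission ratio, 11-point threefold dilutions from 10 µM to 0.0003 µM in duplicate, unphosphorylated and phosphorylated peptide as 0% and 100% controls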
Settings: 46 μM ATP, 1 h room temperature
hey, just use fulfilled if measured EC50 is less than 30 nM, otherwise not fulfilled

Below, 5 compounds whose answers are already recorded.
[
  {
    "COMPOUND": "O=C(Nc1cc2cc(-c3cnco3)ccc2cn1)C1CCOCC1",
    "SYSTEM_UNDER_TEST": "recombinant GSK3β kinase (Homo sapiens (Human))",
    "ASSIGNED_LABEL": "not fulfilled"
  },
  {
    "COMPOUND": "COCCN1CCC(C(=O)Nc2cc3cc(-c4cncn4C)ccc3cn2)CC1",
    "SYSTEM_UNDER_TEST": "recombinant GSK3β kinase (Homo sapiens (Human))",
    "ASSIGNED_LABEL": "not fulfilled"
  },
  {
    "COMPOUND": "Cn1cc(-c2ccc3cnc(NC(=O)C4CC5(C4)CN(C(=O)C(F)(F)F)C5)cc3c2)cn1",
    "SYSTEM_UNDER_TEST": "recombinant GSK3β kinase (Homo sapiens (Human))",
    "ASSIGNED_LABEL": "fulfilled"
  },
  {
    "COMPOUND": "Cn1ncc(-c2ccc3cnc(NC(=O)[C@H]4CC[C@H](CO)CC4)cc3c2)c1CN1CCCCC1",
    "SYSTEM_UNDER_TEST": "recombinant GSK3β kinase (Homo sapiens (Human))",
    "ASSIGNED_LABEL": "not fulfilled"
  },
  {
    "COMPOUND": "[2H]C1([2H])OC([2H])([2H])C([2H])([2H])N(CC(=O)Nc2cc3cc(-c4nnc(C)s4)ccc3cn2)C1([2H])[2H]",
    "SYSTEM_UNDER_TEST": "recombinant GSK3β kinase (Homo sapiens (Human))",
    "ASSIGNED_LABEL": "fulfilled"
  }
]

-- ask Lab note: EC50 threshold 30 nM. Does this compound come in strictly under it? CC1CCN(CC(=O)Nc2cc3cc(-c4cnn(C)c4)ccc3cn2)CC1
-- reply not fulfilled

-- ask Is 30 nM strictly greater than the compound's reported EC50? compound: Cn1cc(-c2ccc3cnc(NC(=O)CN4CCC5(CC4)CC5)cc3c2)cn1
-- reply not fulfilled

-- ask Does the reported EC50 of the following compound sit strictly below 30 nM? Cc1ncc(-c2ccc3cnc(NC(=O)[C@H]4CC[C@H](N(C)C)CC4)cc3c2)o1 [Compound 1017]
-- reply not fulfilled

-- ask Is it true that EC50 reported for CN1CCN(C[C@H]2CC[C@H](C(=O)Nc3cc4cc(-c5cn(C)nn5)ccc4cn3)CC2)CC1 is less than 30 nM?
-- reply fulfilled
